Cited source: ChEMBL document CHEMBL2010768

- Protocol Notes: Permeability of the compound by parallel artificial membrane permeation assay
- Assay type: ADME
- Particulars: PAMPA; read-out: permeability
Readout Kind: Papp (nm/s)
Reply with just the number (in nm/s).

Req: May I ask what Papp has been recorded for Cc1nc2c(C#N)cccc2n1-c1ccc(C(=O)NC2CC2)s1 ?
Resp: 490

----------
- Target Or System: Cytochrome P450 1A2 (Homo sapiens, UniProt P05177)
- Sequence (P05177 whole entry): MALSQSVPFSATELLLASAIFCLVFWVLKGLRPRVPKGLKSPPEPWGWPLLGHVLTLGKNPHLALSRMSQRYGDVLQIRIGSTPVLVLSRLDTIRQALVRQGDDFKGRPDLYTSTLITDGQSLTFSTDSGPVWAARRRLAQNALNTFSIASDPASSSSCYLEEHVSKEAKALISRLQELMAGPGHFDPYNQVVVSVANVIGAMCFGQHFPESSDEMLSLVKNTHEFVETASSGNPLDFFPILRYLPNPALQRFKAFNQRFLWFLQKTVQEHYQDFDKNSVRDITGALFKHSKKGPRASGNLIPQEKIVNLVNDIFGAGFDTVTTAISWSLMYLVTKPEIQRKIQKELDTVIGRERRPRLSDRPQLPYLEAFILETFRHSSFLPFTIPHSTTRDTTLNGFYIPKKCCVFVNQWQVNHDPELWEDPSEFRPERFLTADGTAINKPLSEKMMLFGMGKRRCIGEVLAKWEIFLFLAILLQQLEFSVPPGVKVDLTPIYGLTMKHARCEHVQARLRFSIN
- Protocol Notes: Inhibition of human CYP1A2 using phenacetin as substrate after 10 mins by LC-MS/MS analysis
- Assay type: ADME
pIC50: −log10 of the molar value.
Readout Kind: pIC50

Req: Reported pIC50 for Cytochrome P450 1A2 (Homo sapiens, UniProt P05177), given Cc1nc2c(OC(F)F)cccc2n1-c1ccc(C(=O)NC2CC2)s1 ?
Resp: < 5.00

----------
- Protocol Notes: Unbound fraction in human plasma
- Assay type: ADME, cell-free
Readout Kind: fraction unbound
Answer with a bare number; do not write a unit.

Req: May I ask what fraction unbound has been recorded for Cc1nc2c(C#N)cccc2n1-c1ccc(C(=O)NC2CC2)s1 ?
Resp: 0.11

----------
- Protocol Notes: Cmax in rat at 3 mg/kg, po by LC-MS/MS analysis
- Format: ADME, organism-based
- Design: dose 3 mg/kg, route oral
- Particulars: in vivo
Readout Kind: Cmax (µg/mL)
Reply with just the number (in µg/mL).

Req: May I ask what Cmax has been recorded for Cc1nc2c(C#N)cccc2n1-c1ccc(C(=O)NC2CC2)s1 ?
Resp: 0.618

----------
- Protocol Notes: AUC in rat at 50 to 600 mg/kg, po qd for 7 days measured after 7 days washout period
- Type: ADME, organism-based
- Design: dose 50-600 mg/kg, route oral
- Particulars: plasma
Readout Kind: AUC at 168 h (µg·h/mL)
Reply with just the number (in µg·h/mL).

Req: May I ask what AUC at 168 h has been recorded for Cc1nc2c(C#N)cccc2n1-c1ccc(C(=O)NC2CC2)s1 ?
Resp: 328

----------
- Protocol Notes: AUC (0 to infinity) in rat at 3 mg/kg, po by LC-MS/MS analysis
- Type: ADME, organism-based
- Design: time infinity, dose 3 mg/kg, route oral
- Particulars: plasma
Readout Kind: AUC(0-inf) (ng·h/mL)
Reply with just the number (in ng·h/mL).

Req: May I ask what AUC(0-inf) has been recorded for Cc1nc2c(C#N)cccc2n1-c1ccc(C(=O)NC2CC2)s1 ?
Resp: 1040

----------
Dihydroorotate dehydrogenase (quinone), mitochondrial (Homo sapiens) data, read-out IC50
Sequence (Q02127 whole entry): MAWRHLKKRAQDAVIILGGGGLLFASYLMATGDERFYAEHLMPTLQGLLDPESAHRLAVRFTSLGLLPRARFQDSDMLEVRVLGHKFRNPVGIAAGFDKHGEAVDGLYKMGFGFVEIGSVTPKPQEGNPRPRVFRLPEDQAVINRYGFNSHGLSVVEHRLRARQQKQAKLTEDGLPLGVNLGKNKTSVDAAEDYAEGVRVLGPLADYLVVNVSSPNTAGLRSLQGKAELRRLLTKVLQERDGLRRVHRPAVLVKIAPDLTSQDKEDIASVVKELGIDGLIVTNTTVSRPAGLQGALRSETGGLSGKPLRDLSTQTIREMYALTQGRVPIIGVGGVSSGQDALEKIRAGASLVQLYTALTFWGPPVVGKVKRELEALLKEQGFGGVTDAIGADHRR
Reply with just the number (in µM).

Sample answers from the record:
1) O=C(NC1CC1)c1ccc(-n2cnc3c(F)cccc32)s1 14.9
2) CCCc1nc2ccccc2n1-c1ccc(C(=O)NC2CC2)s1 15.1

Req: May I ask what IC50 has been recorded for Cc1cc(F)c2c(c1)ncn2-c1ccc(C(=O)NC2CC2)s1 ?
Resp: 7.3

----------
- Target Or System: Cytochrome P450 3A4 (Homo sapiens, UniProt P08684)
- Sequence (P08684 whole entry): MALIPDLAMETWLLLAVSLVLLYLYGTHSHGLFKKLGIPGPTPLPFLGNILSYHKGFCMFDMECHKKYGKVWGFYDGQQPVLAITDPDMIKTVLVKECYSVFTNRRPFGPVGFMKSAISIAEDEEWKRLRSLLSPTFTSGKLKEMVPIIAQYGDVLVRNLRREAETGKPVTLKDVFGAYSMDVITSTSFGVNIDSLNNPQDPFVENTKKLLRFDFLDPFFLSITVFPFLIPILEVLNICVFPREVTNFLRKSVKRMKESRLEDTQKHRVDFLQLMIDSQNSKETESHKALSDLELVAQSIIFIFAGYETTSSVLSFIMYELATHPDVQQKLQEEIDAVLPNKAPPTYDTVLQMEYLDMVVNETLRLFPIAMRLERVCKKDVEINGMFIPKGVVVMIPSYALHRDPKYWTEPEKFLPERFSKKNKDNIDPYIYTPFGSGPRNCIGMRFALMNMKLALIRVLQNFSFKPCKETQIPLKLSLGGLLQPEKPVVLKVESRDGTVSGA
pIC50: −log10 of the molar value.
Readout Kind: pIC50

Req: May I ask what pIC50 has been recorded for Cc1nc2c(C#N)cccc2n1-c1ccc(C(=O)NC2CC2)s1 ?
Resp: < 5.00

----------
Each record here notes measured CLhep predicted.
- Protocol Notes: Clearance in mouse liver microsomes by LC-MS/MS analysis
- Type: ADME, Microsome

1. Cc1nc2ccc(OC(F)(F)F)cc2n1-c1ccc(C(=O)NC2CC2)s1 41 mL/min/kg
2. O=C(NC1CC1)c1ccc(-n2cnc3c(Cl)cc(F)cc32)s1 > 72 mL/min/kg
3. Cc1nc2cc(OC(F)(F)F)ccc2n1-c1ccc(C(=O)NC2CC2)s1 43 mL/min/kg
4. Cc1nc2cc(C(F)(F)F)ccc2n1-c1ccc(C(=O)NC2CC2)s1 > 72 mL/min/kg
5. Cc1nc2ccc(F)cc2n1-c1ccc(C(=O)NC2CC2)s1 > 72 mL/min/kg
6. Cc1ccc2c(c1)nc(C)n2-c1ccc(C(=O)NC2CC2)s1 > 72 mL/min/kg
7. Cc1ccc2nc(C)n(-c3ccc(C(=O)NC4CC4)s3)c2c1 > 72 mL/min/kg
8. Cc1nc2c(Cl)cccc2n1-c1ccc(C(=O)NC2CC2)s1 19 mL/min/kg
9. Cc1cccc2c1nc(C)n2-c1ccc(C(=O)NC2CC2)s1 66 mL/min/kg
10. Cc1cc(F)c2nc(C)n(-c3ccc(C(=O)NC4CC4)s3)c2c1 > 72 mL/min/kg

Req: May I ask what CLhep predicted has been recorded for Cc1nc2c(Br)cccc2n1-c1ccc(C(=O)NC2CC2)s1 ?
Resp: 26 mL/min/kg

Req: May I ask what CLhep predicted has been recorded for COc1cccc2c1nc(C)n2-c1ccc(C(=O)NC2CC2)s1 ?
Resp: > 72 mL/min/kg

Req: May I ask what CLhep predicted has been recorded for O=C(NC1CC1)c1ccc(-n2cnc3cc(C(F)(F)F)ccc32)s1 ?
Resp: > 72 mL/min/kg

Req: May I ask what CLhep predicted has been recorded for O=C(NC1CC1)c1ccc(-n2cnc3c(F)cccc32)s1 ?
Resp: > 72 mL/min/kg

Req: May I ask what CLhep predicted has been recorded for Cc1nc2c(OC(F)F)cccc2n1-c1ccc(C(=O)NC2CC2)s1 ?
Resp: 33 mL/min/kg

Req: May I ask what CLhep predicted has been recorded for Cc1cccc2nc(C)n(-c3ccc(C(=O)NC4CC4)s3)c12 ?
Resp: > 72 mL/min/kg

----------
- Protocol Notes: Toxicity in po dosed rat administered qd for 7 days measured after 7 days washout period
- Format: organism-based
- Particulars: in vivo
Readout Kind: NOAEL at 168 h

Req: May I ask what NOAEL at 168 h has been recorded for Cc1nc2c(C#N)cccc2n1-c1ccc(C(=O)NC2CC2)s1 ?
Resp: > 600 mg/kg

----------
- Target Or System: Dihydroorotate dehydrogenase (Plasmodium falciparum)
- Sequence (Q54A96 whole entry): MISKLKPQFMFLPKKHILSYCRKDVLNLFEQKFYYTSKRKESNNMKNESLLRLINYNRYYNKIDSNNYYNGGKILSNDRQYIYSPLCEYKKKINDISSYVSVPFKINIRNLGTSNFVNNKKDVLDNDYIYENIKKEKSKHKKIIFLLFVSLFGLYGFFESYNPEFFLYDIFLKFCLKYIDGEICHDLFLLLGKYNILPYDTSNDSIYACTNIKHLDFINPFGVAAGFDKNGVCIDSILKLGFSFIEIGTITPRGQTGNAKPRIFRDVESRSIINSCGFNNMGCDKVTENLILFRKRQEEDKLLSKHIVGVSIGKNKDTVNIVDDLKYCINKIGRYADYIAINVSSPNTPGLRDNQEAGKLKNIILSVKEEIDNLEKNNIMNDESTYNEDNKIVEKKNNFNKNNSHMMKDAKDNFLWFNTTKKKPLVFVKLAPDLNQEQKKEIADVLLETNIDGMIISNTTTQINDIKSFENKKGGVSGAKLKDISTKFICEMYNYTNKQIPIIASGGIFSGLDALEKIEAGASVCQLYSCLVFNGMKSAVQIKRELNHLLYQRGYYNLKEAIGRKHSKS
Readout Kind: pIC50
Interpret pIC50 as the negative base-10 log of the concentration measured in mol/L.

1. O=C(NC1CC1)c1ccc(-n2c(C(F)(F)F)nc3ccccc32)s1 6.24
2. O=C(NC1CC1)c1ccc(-n2cnc3ccccc32)s1 7.22
3. CCNC(=O)c1ccc(-n2cnc3ccccc32)s1 6.85
4. COc1cccc2c1nc(C)n2-c1ccc(C(=O)NC2CC2)s1 6.79
5. O=C(NC1CC1)c1ccc(-n2cnc3c(Cl)cc(F)cc32)s1 7.46
6. Cc1ccc2c(c1)nc(C)n2-c1ccc(C(=O)NC2CC2)s1 7.25
7. Cc1nc2ccc(C(F)(F)F)cc2n1-c1ccc(C(=O)NC2CC2)s1 7.04
8. O=C(NC1CCC1)c1ccc(-n2cnc3ccccc32)s1 6.38
9. Cc1nc2ccc(OC(F)(F)F)cc2n1-c1ccc(C(=O)NC2CC2)s1 7.28
10. Cc1nc2c(OC(F)F)cccc2n1-c1ccc(C(=O)NC2CC2)s1 7.36

Req: May I ask what pIC50 has been recorded for CCc1nc2ccccc2n1-c1ccc(C(=O)NC2CC2)s1 ?
Resp: 6.96

Req: May I ask what pIC50 has been recorded for CNC(=O)c1ccc(-n2cnc3ccccc32)s1 ?
Resp: 5.97

Req: May I ask what pIC50 has been recorded for O=C(NC1CCCC1)c1ccc(-n2cnc3ccccc32)s1 ?
Resp: 5.60

Req: May I ask what pIC50 has been recorded for Cc1nc2ccccc2n1-c1ccc(C(=O)NC2CC2)s1 ?
Resp: 7.10

Req: May I ask what pIC50 has been recorded for CN(C)c1nc2ccccc2n1-c1ccc(C(=O)NC2CC2)s1 ?
Resp: 5.25

Req: May I ask what pIC50 has been recorded for Cc1nc2c(C#N)cccc2n1-c1ccc(C(=O)NC2CC2)s1 ?
Resp: 7.40

Req: May I ask what pIC50 has been recorded for Cc1nc2ccc(F)cc2n1-c1ccc(C(=O)NC2CC2)s1 ?
Resp: 6.95

Req: May I ask what pIC50 has been recorded for Cc1nc2c(F)cccc2n1-c1ccc(C(=O)NC2CC2)s1 ?
Resp: 7.47
